Item-by-item account of ED50
test system: Mus musculus; assay: Inhibition of s.c. pentylenetetrazole induced seizure in mice following i.p. administration.; format: functional

Use the examples below as a reference point.
COMPOUND	ED50
CN(C)CCn1c(=O)oc2cc(C(=O)c3ccccc3)ccc21	> 120 mg/kg
CCC(=O)c1ccc2c(c1)sc(=O)n2CCN(C)C	> 130 mg/kg
Oc1nc2ccc(Cc3ccccc3)cc2o1	77.2 mg/kg
CCCCCc1ccc2nc(O)oc2c1	80.7 mg/kg

Okay, next one:
For this compound ( "CCCCC(=O)c1ccc2c(c1)sc(=O)n2CCN(C)C" ), measured ED50 is > 70 mg/kg

* * *

target: Sigma non-opioid intracellular receptor 1 (Homo sapiens) (UniProt Q99720); assay: Ratio between the Ki(nM)values of sigma-2 and sigma-1; type: functional
Sequence (Q99720 whole entry): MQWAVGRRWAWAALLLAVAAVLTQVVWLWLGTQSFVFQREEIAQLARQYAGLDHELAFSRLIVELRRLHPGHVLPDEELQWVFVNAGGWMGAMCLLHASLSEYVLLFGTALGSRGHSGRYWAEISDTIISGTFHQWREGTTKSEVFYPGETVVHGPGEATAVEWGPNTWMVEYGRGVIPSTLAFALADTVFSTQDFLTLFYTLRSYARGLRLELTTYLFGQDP
VALUE KIND: Ratio

Use the examples below as a reference point.
QUERY SMILES	RESULT
CCCCC(=O)c1ccc2c(c1)sc(=O)n2CCN(C)C	7
O=c1oc2cc(Cc3ccccc3)ccc2n1CCN1CCOCC1	7
CCC(=O)c1ccc2c(c1)sc(=O)n2CCN1CCCC1	1.6

Simply: "CCC(=O)c1ccc2c(c1)sc(=O)n2CCN1CCCCC1" , Sigma non-opioid intracellular receptor 1 (Homo sapiens) (UniProt Q99720), Ratio = 10

Simply: "CN(C)CCn1c(=O)oc2cc(C(=O)c3ccccc3)ccc21" , Sigma non-opioid intracellular receptor 1 (Homo sapiens) (UniProt Q99720), Ratio = > 27

Simply: "CCCc1ccc2c(c1)sc(=O)n2CCN1CCCCC1" , Sigma non-opioid intracellular receptor 1 (Homo sapiens) (UniProt Q99720), Ratio = 29

Simply: "O=C(c1ccccc1)c1ccc2c(c1)sc(=O)n2CCN1CCCC1" , Sigma non-opioid intracellular receptor 1 (Homo sapiens) (UniProt Q99720), Ratio = 4

Simply: "CCC(=O)c1ccc2c(c1)oc(=O)n2CCN1CCCCC1" , Sigma non-opioid intracellular receptor 1 (Homo sapiens) (UniProt Q99720), Ratio = 13

* * *

assay: The compound was tested for neurologic toxicity (rotarod) test for 4 hours in mice; no activity or no toxicity at 300 mg/kg; assay type: organism-based; design: dose 300 mg/kg; details: mouse, in vivo
VALUE KIND: Rotarod toxicity

QUERY SMILES	RESULT
O=c1[nH]c2ccccc2o1	active at 300 mg/kg
O=c1oc2cc(Cc3ccccc3)ccc2n1CCN1CCOCC1	active at 300 mg/kg
CCC(=O)c1ccc2c(c1)oc(=O)n2CCN1CCCCC1	active at 100 mg/kg
CCCCC(=O)c1ccc2c(c1)oc(=O)n2CCCN1CCCCC1	active at 100 mg/kg

* * *

Item-by-item account of TD50
assay: The compound was determined for the dose (mg/kg) by rotarod test at the time of peak neurotoxic effect in mice on ip administration.; assay type: ADME, organism-based; details: mouse, in vivo
Numeric answer only, unit mg/kg assumed.

Use the examples below as a reference point.
QUERY SMILES	TD50 [mg/kg]
CCC(=O)c1ccc2c(c1)sc(=O)n2CCN1CCCC1	48.4
CCC(=O)c1ccc2c(c1)sc(=O)n2CCN1CCCCC1	46.3
Cn1c(=O)sc2ccccc21	55.2

For this compound ( "CN(C)CCn1c(=O)oc2cc(C(=O)c3ccccc3)ccc21" ), measured TD50 is 99

For this compound ( "CCC(=O)c1ccc2c(c1)oc(=O)n2CCN1CCCCC1" ), measured TD50 is 72.9

For this compound ( "CCCCCc1ccc2nc(O)oc2c1" ), measured TD50 is 168

For this compound ( "CCCCCc1ccc2nc(O)sc2c1" ), measured TD50 is 137

For this compound ( "CCCCC(=O)c1ccc2c(c1)sc(=O)n2CCN(C)C" ), measured TD50 is 61.5

For this compound ( "Oc1nc2ccc(Cc3ccc(F)cc3)cc2o1" ), measured TD50 is 356

For this compound ( "Oc1nc2ccc(Cc3ccccc3)cc2o1" ), measured TD50 is 164

* * *

biological target: Sigma 2 receptor; test: Affinity on sigma 2 receptor using [3H]- DTG as radioligand
Item-by-item account of pKi
# pKi is unitless: minus log10 of the molar concentration; print number only

Use the examples below as a reference point.
QUERY SMILES	pKi
O=c1oc2cc(Cc3ccccc3)ccc2n1CCN1CCOCC1	6.29
CCC(=O)c1ccc2c(c1)oc(=O)n2CCN1CCCCC1	6.05
O=C(c1ccccc1)c1ccc2c(c1)sc(=O)n2CCN1CCCC1	6.65
CCC(=O)c1ccc2c(c1)sc(=O)n2CCN1CCCCC1	6.32
CCC(=O)c1ccc2c(c1)sc(=O)n2CCN1CCCC1	6.04
CCCCC(=O)c1ccc2c(c1)sc(=O)n2CCN(C)C	5.34
CCCc1ccc2c(c1)sc(=O)n2CCN1CCCCC1	7.74

Okay, next one:
For this molecule ( "CCC(=O)c1ccc2c(c1)sc(=O)n2C(=O)CC" ), measured pKi is 6.17

* * *

Item-by-item account of ED50
system: Mus musculus; test: Inhibition of s.c. pentylenetetrazole induced seizure in mice following i.p. administration.; type: functional

Use the examples below as a reference point.
MOLECULE	ED50
CCC(=O)c1ccc2c(c1)sc(=O)n2CCN1CCCCC1	> 55 mg/kg
CCCCCc1ccc2nc(O)sc2c1	90.5 mg/kg
Oc1nc2ccc(Cc3ccc(F)cc3)cc2o1	218 mg/kg
CCC(=O)c1ccc2c(c1)oc(=O)n2CCN1CCCCC1	> 100 mg/kg
NC(=O)N1c2ccccc2C=Cc2ccccc21 [CARBAMAZEPINE]	> 100 mg/kg

For this molecule ( "O=c1oc2cc(Cc3ccccc3)ccc2n1CCN1CCOCC1" ), measured ED50 is > 225 mg/kg

For this molecule ( "Cn1c(=O)oc2ccccc21" ), measured ED50 is 132 mg/kg

For this molecule ( "CCCc1ccc2c(c1)sc(=O)n2CCN1CCCCC1" ), measured ED50 is > 75 mg/kg

For this molecule ( "O=C(c1ccccc1)c1ccc2c(c1)sc(=O)n2CCN1CCCC1" ), measured ED50 is > 210 mg/kg

For this molecule ( CCCC(CCC)C(=O)O [VALPROIC ACID] ), measured ED50 is 149 mg/kg

For this molecule ( "CCC(=O)c1ccc2c(c1)sc(=O)n2CCN1CCCC1" ), measured ED50 is > 80 mg/kg

For this molecule ( "Cn1c(=O)sc2ccccc21" ), measured ED50 is > 100 mg/kg

For this molecule ( "CCC(=O)c1ccc2c(c1)sc(=O)n2CCN1CCOCC1" ), measured ED50 is > 300 mg/kg
